These data points were gathered from ChEMBL document CHEMBL3885861.

Consider the following compounds; for each one, report its KIDNEY_TOTAL.
- Organism: Rattus norvegicus
- ASSAY SUMMARY: Open TG-GATES - Regimen: Daily Repeat
- Type: toxicity, organism-based, Sprague-Dawley
- Set-up: regimen Daily Repeat, gender Male, age 6 weeks
- CONDITION LABEL: in vivo, po, 0 mg/kg, […], tissue Kidney, route gavage, dose level Control, time 7 day

Answer with reported KIDNEY_TOTAL of O=C1CN(/N=C/c2ccc([N+](=O)[O-])o2)C(=O)N1 [NITROFURANTOIN]
2.4 g

Give KIDNEY_TOTAL for the following compound: OCCN1CCN(CCCN2c3ccccc3Sc3ccc(C(F)(F)F)cc32)CC1 [FLUPHENAZINE]
2.3 g

Name the recorded KIDNEY_TOTAL of the compound listed here: C[C@H]1O[C@H](O[C@H]2[C@H](O)[C@@H](O)[C@@H](O[C@H]3[C@H](O)[C@@H](O)C(O)O[C@@H]3CO)O[C@@H]2CO)[C@H](O)[C@@H](O)[C@@H]1N[C@H]1C=C(CO)[C@@H](O)[C@H](O)[C@H]1O (stereo partly specified) [ACARBOSE]
2.3 g

Given Cc1cccc(C)c1OCC(C)N (stereo unspecified) [MEXILETINE] , respond with its KIDNEY_TOTAL.
2.3 g

State, in one line, measured KIDNEY_TOTAL of CCOC(=O)C(C)(C)Oc1ccc(Cl)cc1 [CLOFIBRATE]
2.2 g

Read the entry C[C@H]1C(=O)O[C@@H]2CCN3CC=C(COC(=O)[C@](C)(O)[C@]1(C)O)[C@H]23 [MONOCROTALINE] and write its reported KIDNEY_TOTAL.
2.2 g
